target: BRM (Homo sapiens, UniProt P51531); construct: made in house; host or cells: High Five insect cells; assay: ATPase catalytic activity of BRM, ADP-Glo in vitro biochemical assay; conditions: ATPase catalytic activity, 30 nM BRM, 400 μM ATP, read-out: BRM IP50 (μM)*
Sequence (P51531 whole entry): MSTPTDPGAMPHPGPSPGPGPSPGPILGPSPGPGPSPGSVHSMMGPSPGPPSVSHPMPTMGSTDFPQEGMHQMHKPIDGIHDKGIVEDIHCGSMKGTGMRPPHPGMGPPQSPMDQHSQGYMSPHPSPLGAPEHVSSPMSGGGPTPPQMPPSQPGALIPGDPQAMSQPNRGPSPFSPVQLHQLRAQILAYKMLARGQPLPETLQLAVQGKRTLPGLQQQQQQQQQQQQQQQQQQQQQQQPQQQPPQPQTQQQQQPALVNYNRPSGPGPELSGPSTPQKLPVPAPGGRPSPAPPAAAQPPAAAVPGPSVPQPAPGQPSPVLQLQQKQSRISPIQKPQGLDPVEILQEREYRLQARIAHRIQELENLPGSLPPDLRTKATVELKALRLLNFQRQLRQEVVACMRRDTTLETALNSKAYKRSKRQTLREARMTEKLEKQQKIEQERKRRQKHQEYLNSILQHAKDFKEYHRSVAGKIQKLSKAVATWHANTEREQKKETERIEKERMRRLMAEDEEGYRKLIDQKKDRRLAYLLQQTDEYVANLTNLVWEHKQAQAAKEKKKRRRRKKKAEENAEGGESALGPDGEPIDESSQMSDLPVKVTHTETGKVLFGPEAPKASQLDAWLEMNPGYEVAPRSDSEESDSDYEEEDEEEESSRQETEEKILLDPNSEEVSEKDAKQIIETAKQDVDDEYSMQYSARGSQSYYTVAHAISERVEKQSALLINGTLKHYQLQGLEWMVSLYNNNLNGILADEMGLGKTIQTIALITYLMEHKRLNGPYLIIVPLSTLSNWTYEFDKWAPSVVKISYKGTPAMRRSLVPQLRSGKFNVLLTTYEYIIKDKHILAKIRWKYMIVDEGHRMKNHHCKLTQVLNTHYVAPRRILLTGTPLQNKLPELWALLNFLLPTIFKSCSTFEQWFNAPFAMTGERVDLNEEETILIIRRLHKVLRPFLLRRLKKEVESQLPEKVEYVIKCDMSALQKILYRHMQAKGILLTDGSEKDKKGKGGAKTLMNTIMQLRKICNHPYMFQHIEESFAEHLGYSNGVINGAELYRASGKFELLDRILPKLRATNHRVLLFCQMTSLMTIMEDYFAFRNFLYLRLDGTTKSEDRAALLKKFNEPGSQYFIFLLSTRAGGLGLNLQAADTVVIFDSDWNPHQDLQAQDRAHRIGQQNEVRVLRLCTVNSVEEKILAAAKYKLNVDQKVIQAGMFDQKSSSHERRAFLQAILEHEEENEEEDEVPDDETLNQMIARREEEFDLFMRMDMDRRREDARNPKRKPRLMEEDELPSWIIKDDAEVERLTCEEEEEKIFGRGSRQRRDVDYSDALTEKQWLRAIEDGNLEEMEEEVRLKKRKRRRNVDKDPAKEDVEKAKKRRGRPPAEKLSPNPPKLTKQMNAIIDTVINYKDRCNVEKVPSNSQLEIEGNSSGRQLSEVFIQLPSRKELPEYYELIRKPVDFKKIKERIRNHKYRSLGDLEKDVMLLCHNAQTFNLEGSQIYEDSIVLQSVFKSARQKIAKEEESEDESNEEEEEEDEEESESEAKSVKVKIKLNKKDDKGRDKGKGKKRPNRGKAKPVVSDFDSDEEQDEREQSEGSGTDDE
Measured endpoint: IC50

### Prompt Any idea what its IC50 is? The compound is C[C@H](NC(=O)c1ccn(C2(C)COC2)c1)C(=O)Nc1nc(-c2ccc3ccn(C)c(=O)c3c2)cs1 [Compound 348]
### Response > 0.01 µM

### Prompt Any idea what its IC50 is? The compound is CCn1ccc2ccc(-c3csc(NC(=O)[C@H](COC)NC(=O)c4ccn(C(C)(C)C)c4)n3)cc2c1=O [Compound 347]
### Response > 0.01 µM

### Prompt Any idea what its IC50 is? The compound is C[C@@H]1CN(c2cccc(-c3csc(NC(=O)CNC(=O)c4ccn(C5(C)COC5)c4)n3)n2)C[C@H](C)O1 [Compound 316]
### Response < 0.01 µM

### Prompt Any idea what its IC50 is? The compound is COC[C@H](NC(=O)c1ccn(S(C)(=O)=O)c1)C(=O)Nc1nc(-c2cccc(N3CCC(O)CC3)c2)cs1 [Compound 369]
### Response < 0.01 µM

----------
IC50: recorded values
biological target: BRM (Homo sapiens); construct: made in house; host or cells: High Five insect cells; assay: ATPase catalytic activity of BRM, ADP-Glo in vitro biochemical assay; conditions: ATPase catalytic activity, 30 nM BRM, 400 μM ATP, read-out: BRM IP50 (μM)*

# count of solved cases: 5
Compound	Recorded value
CC(C)C[C@H](NC(=O)c1ccn(S(C)(=O)=O)c1)C(=O)Nc1nc(-c2cccc(-c3ccncc3)c2)cs1 [Compound 75]	> 0.01 µM
C[C@@H]1CN(c2cccc(-c3csc(NC(=O)CNC(=O)c4ccn(C(C)(C)C#N)c4)n3)c2)C[C@H](C)O1 [Compound 162]	< 0.01 µM
CS(=O)(=O)n1ccc(C(=O)NCC(=O)Nc2nc(-c3cccc(-c4cccc(CN)c4)c3)cs2)c1 [Compound 53]	< 0.01 µM
CC(C)(C)n1ccc(C(=O)NCC(=O)Nc2nc(-c3cccc(-c4ccncn4)c3)cs2)c1 [Compound 84]	< 0.01 µM
CS(=O)(=O)n1ccc(C(=O)NCC(=O)Nc2nc(-c3cccc(-c4cnnn4C(F)F)c3)cs2)c1 [Compound 278]	> 0.01 µM

### Prompt For the record CS(=O)(=O)n1ccc(C(=O)NCC(=O)Nc2nc(-c3cccc(C(F)F)c3)cs2)c1 [Compound 248] , what value of IC50 is listed for BRM (Homo sapiens)?
### Response > 0.01 µM

### Prompt For the record CS(=O)(=O)n1ccc(C(=O)NCC(=O)Nc2nc(-c3cccc(N4CC(N5CCOCC5)C4)c3)cs2)c1 [Compound 227] , what value of IC50 is listed for BRM (Homo sapiens)?
### Response > 0.01 µM

----------
IC50: recorded values
molecular target: BRG-1 (Homo sapiens); construct: made in house; host or cells: High Five insect cells; experiment: ATPase catalytic activity of BRG-1, ADP-Glo in vitro biochemical assay; conditions: ATPase catalytic activity, 30 nM BRG-1, 400 μM ATP, read-out: BRG1 IP50 (μM)*
Sequence (P51532 whole entry): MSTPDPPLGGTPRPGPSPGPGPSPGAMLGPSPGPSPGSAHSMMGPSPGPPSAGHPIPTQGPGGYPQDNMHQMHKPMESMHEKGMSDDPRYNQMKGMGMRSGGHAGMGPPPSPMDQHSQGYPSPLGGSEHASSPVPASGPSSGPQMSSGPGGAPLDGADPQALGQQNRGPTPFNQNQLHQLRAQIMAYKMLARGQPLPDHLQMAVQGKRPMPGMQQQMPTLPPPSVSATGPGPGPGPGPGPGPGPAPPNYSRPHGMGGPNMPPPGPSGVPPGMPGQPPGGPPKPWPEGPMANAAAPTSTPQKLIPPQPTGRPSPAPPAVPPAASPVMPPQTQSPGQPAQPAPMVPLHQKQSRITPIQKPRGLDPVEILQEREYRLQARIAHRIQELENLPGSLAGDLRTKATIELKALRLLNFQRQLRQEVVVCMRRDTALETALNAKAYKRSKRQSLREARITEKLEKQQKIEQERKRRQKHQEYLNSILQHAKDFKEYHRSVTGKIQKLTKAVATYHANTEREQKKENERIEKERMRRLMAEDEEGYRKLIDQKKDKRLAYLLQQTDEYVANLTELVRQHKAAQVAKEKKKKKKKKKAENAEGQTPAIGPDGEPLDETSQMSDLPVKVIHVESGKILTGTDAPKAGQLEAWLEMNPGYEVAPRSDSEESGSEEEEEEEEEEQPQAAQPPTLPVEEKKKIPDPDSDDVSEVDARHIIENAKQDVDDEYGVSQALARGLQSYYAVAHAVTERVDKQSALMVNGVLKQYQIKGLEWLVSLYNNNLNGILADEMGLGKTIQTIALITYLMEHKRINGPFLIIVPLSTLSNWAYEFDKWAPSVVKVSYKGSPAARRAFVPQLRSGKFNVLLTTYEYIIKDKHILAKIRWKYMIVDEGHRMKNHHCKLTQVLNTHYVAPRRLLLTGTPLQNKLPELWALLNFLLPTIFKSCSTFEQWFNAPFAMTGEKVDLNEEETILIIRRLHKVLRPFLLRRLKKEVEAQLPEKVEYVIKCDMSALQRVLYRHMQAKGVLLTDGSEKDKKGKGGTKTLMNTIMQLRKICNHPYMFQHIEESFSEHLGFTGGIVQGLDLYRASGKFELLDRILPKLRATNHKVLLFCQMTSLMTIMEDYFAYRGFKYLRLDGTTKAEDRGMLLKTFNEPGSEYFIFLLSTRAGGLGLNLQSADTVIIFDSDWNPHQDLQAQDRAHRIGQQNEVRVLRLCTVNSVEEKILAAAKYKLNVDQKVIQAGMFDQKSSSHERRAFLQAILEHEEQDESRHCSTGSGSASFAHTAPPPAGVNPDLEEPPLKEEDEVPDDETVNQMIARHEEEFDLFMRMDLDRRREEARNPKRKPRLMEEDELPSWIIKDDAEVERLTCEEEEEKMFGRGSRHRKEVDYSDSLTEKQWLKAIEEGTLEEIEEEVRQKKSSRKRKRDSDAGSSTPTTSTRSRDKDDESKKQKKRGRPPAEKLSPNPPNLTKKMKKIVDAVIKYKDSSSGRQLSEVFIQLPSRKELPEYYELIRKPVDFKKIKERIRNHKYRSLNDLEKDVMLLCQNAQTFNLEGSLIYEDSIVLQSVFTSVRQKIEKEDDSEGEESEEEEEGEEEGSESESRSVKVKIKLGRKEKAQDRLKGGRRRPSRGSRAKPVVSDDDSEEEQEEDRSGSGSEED

# count of solved cases: 2
Smiles record	System tested	Recorded value
CS(=O)(=O)n1ccc(C(=O)NCC(=O)Nc2nc(-c3cccc(N4CC5(CCCCO5)C4)c3)cs2)c1	BRG-1 (Homo sapiens)	> 0.01 µM
C[C@@H]1CN(c2cc(-c3csc(NC(=O)CNC(=O)c4ccn(S(C)(=O)=O)c4)n3)ccc2F)C[C@H](C)O1	BRG-1 (Homo sapiens)	< 0.01 µM

### Prompt For the record CS(=O)(=O)n1ccc(C(=O)NCC(=O)Nc2nc(-c3ccn(-c4ccncc4)n3)cs2)c1 , what value of IC50 is listed for BRG-1 (Homo sapiens)?
### Response > 0.1 µM

### Prompt For the record CC1(C)CN(c2cccc(-c3csc(NC(=O)CNC(=O)c4ccn(S(C)(=O)=O)c4)n3)c2)CCO1 , what value of IC50 is listed for BRG-1 (Homo sapiens)?
### Response > 0.01 µM
